# credit: patent US20240425587A1

- target: cynomolgus PILRA, ectopically expressed on 293 cells (cynomolgus monkey)
- Sequence (chain, as listed by the source): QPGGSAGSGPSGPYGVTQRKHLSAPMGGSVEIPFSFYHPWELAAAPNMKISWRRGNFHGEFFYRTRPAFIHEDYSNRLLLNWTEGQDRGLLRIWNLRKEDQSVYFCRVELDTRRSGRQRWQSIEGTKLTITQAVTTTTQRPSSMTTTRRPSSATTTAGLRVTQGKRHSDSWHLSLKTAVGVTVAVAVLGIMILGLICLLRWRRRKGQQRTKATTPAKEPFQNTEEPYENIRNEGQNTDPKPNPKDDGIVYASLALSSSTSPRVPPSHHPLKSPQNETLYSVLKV
- test.details: flow cytometry, 293 cells expressing target
Strictly below 1 µg/mL in EC50: label 1. Otherwise: label 0.

Reference set, count: 2
{"columns": ["binder", "assigned.class"],
 "data": [
  ["A4 (antibody, V domains shown, phage campaign) VH: QVQLVQSGAEVKKPGSSVKVSCKASGYTFTGYAVNWVRQAPGQGLEWMGGIIPIFGTANYAQKFQGRVTITADESTSTAYMELSSLRSEDTAVYYCARNLGYSSGWSGYYYGMDVWGQGTMVTVSS VL: EIVMTQSPATLSVSPGERATLSCRASQSVSSNYLAWYQQKPGQAPRLLIYGASTRATGIPARFSGSGSGTEFTLTISSLQSEDFAVYYCQQYGSSSFTFGPGTKLEIK", "label 0"],
  ["A13 (antibody, V domains shown, phage campaign; same VH/VL as E19) VH: QVQLVQSGAEVKKPGSSVKVSCKASGYLFSDYAMNWVRQAPGQGLEWVGWIIPNSGGTKFAQTFQGRVTITADESTSTAYMELSSLRSEDTAVYYCAREHGVVPADHYYYGMDVWGQGTTVTVSS VL: EIVMTQSPATLSVSPGERATLSCRASQSISSSYLAWYQQKPGQAPRLLIYGASTRATGIPARFSGSGSGTEFTLTISSLQSEDFAVYYCQQYGRFPWTFGQGTKVEIK", "label 1"]
]}

Is it true that EC50 reported for A10 (antibody, V domains shown, phage campaign) VH: QVQLVQSGAEVKKPGASVKVSCKASGYTFTDYYIHWVRQAPGQGLEWMGWMNPNSGNTGYAQKFQGRVTMTRDTSTSTVYMELSSLRSEDTAVYYCAREGSSGWYVDYWGQGTLVTVSS VL: DIQMTQSPSSLSASVGDRVTITCQASQDISQFLNWYQQKPGKAPKLLIYDAYSLQSGVPSRFSGSGSGTDFTLTISSLQPEDFATYYCQQANSFPLTFGQGTKVEIK is less than 1 µg/mL?
label 0
